enrichment ratio by entry:
B1: PhoQ; a variant is named by its letters at X, in order, P23837 (parent)
chain: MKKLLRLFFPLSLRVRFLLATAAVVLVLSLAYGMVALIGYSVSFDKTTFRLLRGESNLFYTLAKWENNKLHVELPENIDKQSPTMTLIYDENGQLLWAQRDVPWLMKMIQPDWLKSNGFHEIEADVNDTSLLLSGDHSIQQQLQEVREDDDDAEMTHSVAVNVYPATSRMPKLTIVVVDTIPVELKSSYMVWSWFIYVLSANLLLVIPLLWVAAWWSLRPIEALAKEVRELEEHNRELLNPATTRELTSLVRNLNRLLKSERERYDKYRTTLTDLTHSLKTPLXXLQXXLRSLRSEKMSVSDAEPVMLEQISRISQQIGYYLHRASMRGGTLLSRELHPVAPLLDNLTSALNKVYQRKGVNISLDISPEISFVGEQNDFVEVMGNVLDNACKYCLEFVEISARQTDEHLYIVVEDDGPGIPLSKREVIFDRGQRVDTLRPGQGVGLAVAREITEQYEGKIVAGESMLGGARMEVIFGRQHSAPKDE

# Variants of: B1
# Test Summary: enrichment ratio after two sorts for PhoP signalling (ratio (wild type AVST 3.29)); higher = more functional
# Condition Summary: with PhoP (E. coli)
In all, about 140,000 sequences were measured (“enrichment ratio after two sorts for PhoP signalling”: median about 0, highest 2% from about 11 on). For the sample, the highest values were picked, then their nearest neighbours and some sequences at random.

[
  {
    "Mutant Label": "YRVY",
    "enrichment ratio": "≤ 0.25"
  },
  {
    "Mutant Label": "SKFW",
    "enrichment ratio": "≤ 0.25"
  },
  {
    "Mutant Label": "ASIN",
    "enrichment ratio": 12
  },
  {
    "Mutant Label": "ITQQ",
    "enrichment ratio": "≤ 0.25"
  },
  {
    "Mutant Label": "SFTF",
    "enrichment ratio": "≤ 0.25"
  },
  {
    "Mutant Label": "FDYT",
    "enrichment ratio": "≤ 0.25"
  },
  {
    "Mutant Label": "PSFY",
    "enrichment ratio": "≤ 0.25"
  },
  {
    "Mutant Label": "LDTG",
    "enrichment ratio": "≤ 0.25"
  }
]

Prompt: Return enrichment ratio for the following variant: "HEFW"
Response: ≤ 0.25
